Biological target: SRC (Homo sapiens)
Sequence (P12931 whole entry): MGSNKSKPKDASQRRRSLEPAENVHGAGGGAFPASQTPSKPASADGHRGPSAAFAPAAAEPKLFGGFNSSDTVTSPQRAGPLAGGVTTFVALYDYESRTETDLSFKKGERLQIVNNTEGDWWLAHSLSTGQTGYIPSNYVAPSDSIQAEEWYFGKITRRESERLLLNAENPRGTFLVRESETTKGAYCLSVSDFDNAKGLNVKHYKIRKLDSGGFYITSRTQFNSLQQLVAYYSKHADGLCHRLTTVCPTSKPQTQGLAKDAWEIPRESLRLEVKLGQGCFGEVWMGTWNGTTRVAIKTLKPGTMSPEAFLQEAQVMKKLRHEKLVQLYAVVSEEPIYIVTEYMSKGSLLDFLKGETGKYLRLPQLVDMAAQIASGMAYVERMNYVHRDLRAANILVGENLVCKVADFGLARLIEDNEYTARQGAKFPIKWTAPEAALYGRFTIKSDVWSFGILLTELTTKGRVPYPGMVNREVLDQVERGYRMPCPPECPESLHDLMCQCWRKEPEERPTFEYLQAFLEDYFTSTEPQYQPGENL
Assay: Inhibition of a panel of kinases, in vitro HotSpot kinase assay: SRC
Type: biochemical
Details: D-compounds panel data; 1 μM ATP
pIC50: −log10 of the molar value.
ENDPOINT_LABEL: pIC50

**Q:** Answer with the recorded pIC50 of C[C@@H]1[C@H](NC(=O)c2ccc(C3CC3)cc2F)CCCN1c1cnc(C(N)=O)c(Nc2ccc(S(C)(=O)=O)cc2)n1 only.
**A:** 6.00 to 7.00

**Q:** Answer with the recorded pIC50 of C[C@@H]1[C@H](NC(=O)c2ccc(C3CC3)cc2C(F)(F)F)CCCN1c1cnc(C(N)=O)c(Nc2cnn(C)c2)n1 only.
**A:** 6.00 to 7.00

**Q:** Answer with the recorded pIC50 of C[C@@H]1[C@H](NC(=O)c2ccc(C3CC3)cc2F)CCCN1c1cnc(C(N)=O)c(Nc2ccn(C)n2)n1 only.
**A:** < 5.00

**Q:** Answer with the recorded pIC50 of C[C@@H]1[C@H](NC(=O)c2cnc(C3CC3)cn2)CCCN1c1cnc(C(N)=O)c(Nc2cnn(C)c2)n1 only.
**A:** 7.00 to 8.00

**Q:** Answer with the recorded pIC50 of C[C@@H]1[C@H](NC(=O)c2ccc(C3CC3)cc2F)CCCN1c1cnc(C(N)=O)c(Nc2ccc(CN3CCN(C)CC3)cc2)n1 only.
**A:** 6.00 to 7.00

---

Target: ITK (Homo sapiens, UniProt Q08881)
Sequence (Q08881 1-620): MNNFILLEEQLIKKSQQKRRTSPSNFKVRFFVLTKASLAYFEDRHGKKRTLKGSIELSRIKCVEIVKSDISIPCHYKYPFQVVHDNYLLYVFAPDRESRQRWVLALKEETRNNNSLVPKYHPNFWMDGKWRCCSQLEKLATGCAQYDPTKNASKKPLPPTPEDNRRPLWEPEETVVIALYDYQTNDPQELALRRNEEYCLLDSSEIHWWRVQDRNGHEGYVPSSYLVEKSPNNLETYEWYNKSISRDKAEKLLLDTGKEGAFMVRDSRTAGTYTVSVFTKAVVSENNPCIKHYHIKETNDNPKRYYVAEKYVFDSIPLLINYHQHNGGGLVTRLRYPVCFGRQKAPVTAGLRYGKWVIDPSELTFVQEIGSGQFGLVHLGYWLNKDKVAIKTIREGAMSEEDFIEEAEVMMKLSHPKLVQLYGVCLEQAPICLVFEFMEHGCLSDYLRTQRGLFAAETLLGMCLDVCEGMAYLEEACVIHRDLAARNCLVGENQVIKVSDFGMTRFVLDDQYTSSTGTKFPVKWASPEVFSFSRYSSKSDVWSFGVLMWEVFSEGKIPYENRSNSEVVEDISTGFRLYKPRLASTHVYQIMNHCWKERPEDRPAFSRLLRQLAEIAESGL
Assay: Inhibition of a panel of kinases, in vitro HotSpot kinase assay: ITK
Assay type: biochemical
Details: E compounds, Table 17
ENDPOINT_LABEL: IC50

Use these answered entries as a reference point.
INSERT INTO measurements (chemical_structure, endpoint_label, experimental_result) VALUES
  ('CC(C)c1ccc(Nc2nc(N3CCC[C@@H](N4CCC[C@@H](Nc5cc(Cl)cc(C(F)(F)F)c5)C4=O)C3)nnc2C(N)=O)cc1', 'IC50', '10 to 100 nM'),
  ('C=CC(=O)N1CCC[C@@H](Nc2nnc(C(N)=O)c(Nc3ccc(S(C)(=O)=O)cc3)n2)C1', 'IC50', '≤ 10 nM'),
  ('C=CC(=O)N1CCC[C@@H](Nc2nnc(C(N)=O)c(Nc3ccc(C#N)cc3)n2)C1', 'IC50', '10 to 100 nM'),
  ('C=CC(=O)N1CCC[C@H](Nc2cnc(C(N)=O)c(Nc3ccc(-c4ncccn4)cc3)n2)C1', 'IC50', '100 to 1000 nM'),
  ('C=CC(=O)N1CCCC[C@@H](Nc2nnc(C(N)=O)c(Nc3ccc(C(C)C)cc3)n2)C1', 'IC50', '≤ 10 nM'),
  ('C=CC(=O)N1CCC[C@@H](Nc2nnc(C(N)=O)c(Nc3cccc(C(=O)NC)c3)n2)C1', 'IC50', '10 to 100 nM');

**Q:** Answer with the recorded IC50 of C=CC(=O)N1CC[C@@H](N(C)c2cnc(C(N)=O)c(Nc3ccc(-c4ncccn4)cc3)n2)C1 only.
**A:** ≤ 10 nM

---

Biological target: UniProt:P00533
Sequence (P00533 25-1210): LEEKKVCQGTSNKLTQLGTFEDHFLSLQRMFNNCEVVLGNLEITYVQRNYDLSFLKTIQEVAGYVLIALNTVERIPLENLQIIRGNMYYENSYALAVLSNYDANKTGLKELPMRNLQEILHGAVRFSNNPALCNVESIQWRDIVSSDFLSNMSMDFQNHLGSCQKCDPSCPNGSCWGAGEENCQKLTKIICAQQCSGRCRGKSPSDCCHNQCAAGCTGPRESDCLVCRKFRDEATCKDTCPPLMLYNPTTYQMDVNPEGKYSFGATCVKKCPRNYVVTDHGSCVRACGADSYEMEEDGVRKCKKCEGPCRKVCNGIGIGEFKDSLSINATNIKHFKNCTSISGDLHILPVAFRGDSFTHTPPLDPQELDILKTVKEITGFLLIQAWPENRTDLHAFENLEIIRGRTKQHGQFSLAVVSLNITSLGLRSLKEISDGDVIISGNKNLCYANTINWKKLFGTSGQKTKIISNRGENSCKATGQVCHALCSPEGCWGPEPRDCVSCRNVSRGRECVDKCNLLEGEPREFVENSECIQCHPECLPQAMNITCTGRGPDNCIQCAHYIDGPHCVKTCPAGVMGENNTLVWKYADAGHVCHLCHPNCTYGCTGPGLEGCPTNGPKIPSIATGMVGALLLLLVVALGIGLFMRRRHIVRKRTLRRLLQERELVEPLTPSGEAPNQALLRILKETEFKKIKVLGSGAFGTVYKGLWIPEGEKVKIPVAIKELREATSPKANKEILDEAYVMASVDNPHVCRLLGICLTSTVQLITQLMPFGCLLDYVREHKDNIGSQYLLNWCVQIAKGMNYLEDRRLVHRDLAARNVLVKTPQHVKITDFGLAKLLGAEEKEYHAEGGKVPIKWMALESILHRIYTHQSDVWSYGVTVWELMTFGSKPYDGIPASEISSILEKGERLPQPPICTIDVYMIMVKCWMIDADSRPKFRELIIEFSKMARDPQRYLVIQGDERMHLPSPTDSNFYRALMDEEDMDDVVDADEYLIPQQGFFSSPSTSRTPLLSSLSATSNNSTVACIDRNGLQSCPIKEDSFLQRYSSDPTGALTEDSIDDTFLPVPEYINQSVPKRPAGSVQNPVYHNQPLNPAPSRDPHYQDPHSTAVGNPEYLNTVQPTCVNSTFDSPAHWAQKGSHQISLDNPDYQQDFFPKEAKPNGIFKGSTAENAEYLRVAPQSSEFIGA
Assay: Inhibition of a panel of kinases, in vitro HotSpot kinase assay: EGFR
Type: biochemical
Conditions: fold relative to Btk IC50 value
# key: entry, value: EGFR* IC50 relative to Btk IC50 value
Report the figure in x without appending any unit label.

Use these answered entries as a reference point.
INSERT INTO results (chemical_structure, readout_units, experimental_result) VALUES
  ('C[C@@H]1[C@H](NC(=O)c2ccc(C(C)(C)C)cc2)CCCN1c1cnc(C(N)=O)c(Nc2cnn(C)c2)n1', 'x', 3304),
  ('C[C@@H]1[C@H](NC(=O)c2ccc(C(C)(C)O)cc2)CCCN1c1cnc(C(N)=O)c(Nc2cnn(C)c2)n1', 'x', 380),
  ('C[C@@H]1[C@H](NC(=O)c2ccc(C3CC3)cc2)CCCN1c1cnc(C(N)=O)c(Nc2cnn(C(F)F)c2)n1', 'x', 1276),
  ('C[C@@H]1[C@H](NC(=O)c2ccc(C3CC3)cc2)CCCN1c1cnc(C(N)=O)c(Nc2cnn(C3CC3)c2)n1', 'x', 730),
  ('C[C@@H]1[C@H](NC(=O)c2ccc(C3CC3)cc2)CCCN1c1nnc(C(N)=O)c(Nc2cnn(C)c2)n1', 'x', 2962);

**Q:** Answer with the recorded EGFR* IC50 relative to Btk IC50 value of Cn1cc(Nc2nc(N3CCC[C@@H](NC(=O)c4ccc(C5CC5)cc4)C3)nnc2C(N)=O)cn1 only.
**A:** 5208

**Q:** Answer with the recorded EGFR* IC50 relative to Btk IC50 value of C[C@@H]1[C@H](NC(=O)c2ccc(C3COC3)cc2)CCCN1c1cnc(C(N)=O)c(Nc2cnn(C)c2)n1 only.
**A:** 896

---

Target: UniProt:P42680
Sequence (P42680 whole entry): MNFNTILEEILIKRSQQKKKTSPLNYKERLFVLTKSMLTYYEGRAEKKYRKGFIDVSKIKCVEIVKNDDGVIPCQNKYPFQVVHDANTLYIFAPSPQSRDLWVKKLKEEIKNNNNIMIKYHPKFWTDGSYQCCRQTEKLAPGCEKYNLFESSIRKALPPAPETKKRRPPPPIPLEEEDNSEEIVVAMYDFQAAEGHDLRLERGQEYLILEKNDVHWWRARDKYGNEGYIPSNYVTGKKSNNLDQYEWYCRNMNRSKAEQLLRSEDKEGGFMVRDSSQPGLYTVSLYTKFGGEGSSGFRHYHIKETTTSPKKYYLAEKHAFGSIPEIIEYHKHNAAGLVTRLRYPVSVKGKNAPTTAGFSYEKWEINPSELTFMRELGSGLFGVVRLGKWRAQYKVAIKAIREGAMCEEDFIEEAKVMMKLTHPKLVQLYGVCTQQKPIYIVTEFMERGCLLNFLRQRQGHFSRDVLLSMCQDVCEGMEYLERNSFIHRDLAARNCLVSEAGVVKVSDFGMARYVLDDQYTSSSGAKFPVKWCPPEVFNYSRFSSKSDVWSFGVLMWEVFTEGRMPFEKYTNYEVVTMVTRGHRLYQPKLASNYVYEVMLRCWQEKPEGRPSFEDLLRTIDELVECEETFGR
Assay: Inhibition of a panel of kinases, in vitro HotSpot kinase assay: TEC
Assay type: biochemical
Settings: D-compounds panel data; 1 μM ATP
# key: entry, value: IC50

Use these answered entries as a reference point.
INSERT INTO measurements (compound, measured_on, experimental_result) VALUES
  ('CCN(C)C(=O)N[C@@H]1CCCN(c2cnc(C(N)=O)c(Nc3cnn(C)c3)n2)[C@@H]1C', 'UniProt:P42680', '10 to 100 nM'),
  ('C[C@@H]1[C@H](NC(=O)c2ccc(C3CC3)cc2)CCCN1c1cnc(C(N)=O)c(Nc2cc(CN3CCCCC3)ns2)n1', 'UniProt:P42680', '10 to 100 nM'),
  ('Cc1csc(Nc2nc(N3CCC[C@@H](NC(=O)c4ccc(C5CC5)cc4F)[C@H]3C)cnc2C(N)=O)n1', 'UniProt:P42680', '> 10000 nM'),
  ('C[C@@H]1[C@H](NC(=O)c2ccc(OC3CC3)cc2)CCCN1c1cnc(C(N)=O)c(Nc2cnn(C)c2)n1', 'UniProt:P42680', '≤ 10 nM'),
  ('C[C@@H]1[C@H](NC(=O)c2ccc(C3CC3)cc2)CCCN1c1cnc(C(N)=O)c(Nc2ccc(OC3C[C@H]4CC[C@@H](C3)N4C)cc2)n1 (stereo partly drawn) [Example D-106]', 'UniProt:P42680', '≤ 10 nM');

**Q:** Answer with the recorded IC50 of C[C@@H]1[C@H](NC(=O)c2ccc(S(C)(=O)=O)cc2)CCCN1c1cnc(C(N)=O)c(Nc2ccc(N3CCN(C)CC3)cc2)n1 only.
**A:** ≤ 10 nM

**Q:** Answer with the recorded IC50 of C[C@@H]1[C@H](NC(=O)c2ccc(C3CC3)cc2)CCCN1c1cnc(C(N)=O)c(Nc2ccc(OC(F)(F)F)cc2)n1 only.
**A:** 100 to 1000 nM

---

# key: entry, value: pIC50
Target: BTK-WT (Homo sapiens, UniProt Q06187)
Construct: purified from insect cells as a full-length construct containing an N-terminal 6X-His tag; His6 (N); made in house; host or cells: insect cells (baculovirus Sf21 in Method B)
Sequence (Q06187 whole entry): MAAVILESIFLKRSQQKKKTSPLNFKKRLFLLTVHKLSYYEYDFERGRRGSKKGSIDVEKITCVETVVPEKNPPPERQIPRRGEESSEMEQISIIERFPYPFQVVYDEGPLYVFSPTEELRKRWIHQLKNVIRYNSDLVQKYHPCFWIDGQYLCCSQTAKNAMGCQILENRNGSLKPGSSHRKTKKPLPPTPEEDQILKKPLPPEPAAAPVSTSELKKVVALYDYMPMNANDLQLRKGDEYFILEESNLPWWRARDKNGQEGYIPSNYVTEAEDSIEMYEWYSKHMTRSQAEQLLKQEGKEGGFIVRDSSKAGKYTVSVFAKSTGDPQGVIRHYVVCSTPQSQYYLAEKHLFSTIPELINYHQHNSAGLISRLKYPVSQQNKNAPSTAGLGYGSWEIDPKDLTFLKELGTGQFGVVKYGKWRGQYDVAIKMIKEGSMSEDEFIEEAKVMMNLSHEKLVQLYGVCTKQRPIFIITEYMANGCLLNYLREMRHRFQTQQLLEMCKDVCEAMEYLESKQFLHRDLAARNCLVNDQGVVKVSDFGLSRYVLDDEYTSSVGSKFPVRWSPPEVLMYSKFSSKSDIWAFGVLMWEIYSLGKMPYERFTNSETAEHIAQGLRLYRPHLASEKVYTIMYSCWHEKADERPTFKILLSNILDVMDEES
Assay: Btk in vitro inhibitory activity (one of Method A TR-FRET, Method B electrophoretic mobility shift, Method C radiometric filter binding)
Assay type: biochemical
Details: Table 15, C compounds; read-out: IC50 BTK-WT
pIC50: −log10 of the molar value.

**Q:** Please report the measured pIC50 for C=CC(=O)N1CCC[C@@H](Nc2nnc(C(N)=O)c(Nc3ccc(S(C)(=O)=O)cc3)n2)C1 [Example C-59] tested on BTK-WT (Homo sapiens, UniProt Q06187).
**A:** ≥ 8.00

**Q:** Please report the measured pIC50 for C=CC(=O)N1CCC[C@@H](Nc2nnc(C(N)=O)c(Nc3cccc(C)c3)n2)C1 [Example C-55] tested on BTK-WT (Homo sapiens, UniProt Q06187).
**A:** ≥ 8.00

**Q:** Please report the measured pIC50 for CN(c1cnc(C(N)=O)c(Nc2ccc(C3(C)CCN(C4CCCC4)CC3)cc2)n1)[C@@H]1CCN(C(=O)C(F)(F)F)C1 [Example C-68] tested on BTK-WT (Homo sapiens, UniProt Q06187).
**A:** ≥ 8.00

**Q:** Please report the measured pIC50 for C=CC(=O)N1CCC[C@@H](Nc2nnc(C(N)=O)c(Nc3cncc(F)c3)n2)C1 [Example C-69] tested on BTK-WT (Homo sapiens, UniProt Q06187).
**A:** ≥ 8.00
